# method summary: soluble on expression in E. coli; label from the status in PepcDB or PDB records
quantity measured: soluble on expression in E. coli

{"input sequence": "MAEIHYLISDASKKVDVEAHVLRYWEEELELPIPRNDMGHRYYTDFHIRLFKQVKVLKEKGYQLKAIKTALAKSLQDGKVIIPSEVLEEDVIAALKETGIGEQDMKEQKGNENKNGEKRADEKVKDGQACEGGGEAGLTALDKDSVEALLAGEKMEQFQKVMNHIIGRAMEENSEKLSQDISYLVHDKLMKEMEYLMRVSDEREEERFKQLDEVIRAYQRDNQGRAEAAASVTGFPFFRFKKKKFGRNGNKL", "quantity measured": "soluble on expression in E. coli", "observed measurement": "not soluble"}
{"input sequence": "MSNSAQRDARNSRDESARASDTDRIQIAQLLAYAAEQGRLQLTDYEDRLARAYAATTYQELDRLRADLPGAAIGPRRGGECNPAPSTLLLALLGGFERRGRWNVPKKLTTFTLWGSGVLDLRYADFTSTEVDIRAYSIMGAQTILLPPEVNVEIHGHRVMGGFDRKVVGEGTRGVPTVRIRGFSLWGDVGIKRKPRKPRK", "quantity measured": "soluble on expression in E. coli", "observed measurement": "not soluble"}

----------
# method summary: soluble on expression in E. coli; label from the status in PepcDB or PDB records

{"input sequence": "MGSDKIHHHHHHMNETVSLETREVRFLSVFDFDGTLTYRDSFVPFLRFAFGNRVFVRRMLRMAGPSLAYLCRRIDRDDLKARLIATFLTDVPVHVLEERALAYQNRFWETLMRPHALTAVADQVSSGSTVTICSASPSLLLRPFAEKLGVHLIATELEVVDGVLTGRIVGRNCRRDEKVCRLERHYGPLTQYSLRAWGDSRGDTELLAAALERFWKPFR", "soluble on expression in E. coli": "not soluble"}
{"input sequence": "GMNVDFINPFLDSLLNVLKTMANMELKPGKPNLKKDNLAKGDVSGLIGMVGPQTKGSLSITFEETLILEIMNKMLGEKPESIDEEVTDLVGELTNMVTGGAKNLLSDKGYEFDMATPIVVSGKNHTIAHKSDGQKIIMPFSSIYGTAYIEICFEG", "soluble on expression in E. coli": "soluble"}
{"input sequence": "MGSDKIHHHHHHMNLTGCGEKFYQHCKVILSEFEWATYEISYNQQYPEGELKLNTPMSFSNIFLQHIISDFIEKYPSIKIDLFMTDQLLDVNQHKFDLTIRLDGSAPSLANSKILNTYQRYLYATPEYFNQHGLPTSLEELKEHKFLIYYQDSRHKKLIFQKDQKEVSFNCFPVMTCNNGELLLDMCLKDHGIVFLPEFIAEPYYKEGKLQKCLEDYTSQPLHLYVTWPNRKILSKKVKLFIDFLTHQIIPIK", "soluble on expression in E. coli": "not soluble"}
{"input sequence": "DPATVFRLVAAEALTLTGADGTLVAVPADPDASAAEELVIVEVAGAVPAEVEASAIPVQDNAIGQAFRDRAPRRLDVLDGPGLGGPALVLPLRATDTVAGVLVAVQGSGARPFTAEQLEMMTGFADQAAVAWQLASSQRRMSELDILAD", "soluble on expression in E. coli": "soluble"}
{"input sequence": "MGSDKIHHHHHHMFRTNPLKIIMLGPSLLQQGGISGYEKLFLEYAPSEIHICHIITHEEGTIAFKIMVFLKAIWKFIWMLISEEIDIVQLEISQRGSVFRQSIMILLAWVFHKPIILHAHGSQFHIFYAGLANWIQKLLSWIFCKCQRLIVLSESWKSFYIDTLGLKSEQVVVFYNPVKVPTEVPSRSFSTKLNLLFLGRIGQRKGAFDLIKAFSSLPTEYQTRSIMVMAGDGDIEKARDLVTTLNLQDYIQLPGWIGSDERDILLSKADIFVLPSYNEGLPLAMLEAMAWELPVIVTPVGGIPEIVTQSENGLIVNPGNVEQLSNAIKSLIENEALRLSLGAKARTSVFPLDIKKHWVDFIDLYNLVLNTMEEHSKG", "soluble on expression in E. coli": "not soluble"}
{"input sequence": "MIIPLVFLIGFAAAGNFGSSSSESCEDGNGGGRPRPGNGGGRPPGNGNGNGNGGGRPTNGGCDAGWRRFNRPNGGWCVRVFGARMTQADAQIQCQSYGATLSSLQNMEEALQINNMALSVIKANTGSVWIGAKRTTACLKQWLWTNGCGRQNSFAWTDGSATGVAGFVWDNLQPDNDELKQPCAVMLAARAAVTWGGKFWQPAMLDDNNCMFDLEGKHPRSVYGYVCGKNSRA", "soluble on expression in E. coli": "not soluble"}

----------
# method summary: soluble on expression in E. coli; label from the status in PepcDB or PDB records

{"input sequence": "MGSDKIHHHHHHMKIGIVTFHRALNYGAVLQACAMRRIFSDHGEVEMVDYWPDYHSSHYSLLDTRFLNKNQSLSSRVRLLKSAIKRIILLPVRLKRNKKFLSFIDSNIVKVSNAPIKLANKIPDYFDVVVYGSDQIWRVYDFDNYPRPDMVYMGAGVLDGTRKIAFAASMGDVNVDTLCDDSVIKALKNFEHINVREQALSESLLKHSGLSSCVVLDPTFLVSSDVWKRMAETIPRNRKDNKYALFYSLIPSEESIRIAKNIAEEKGVELVEINGFETIGGLFNKSVAQSAGPLDFLELIMNAEFIVSTSFHGVVFSIIFEKQFCACGMKGHSERVRSLLSKLSIEDRLIDTVEQLESLGEIDYKEVTKLLAREIEHSKELLEYSLFE", "soluble on expression in E. coli": "not soluble"}
{"input sequence": "MGSDKIHHHHHHMDRRDFFKTVAITGAAMTIQRSEAMEILTQTINKANGDKPDLVAVMGGEPEAMFRRAISELGGMKQFIKPGQKVVVKPNIGWDKVPELAGNTNPKLITEIIKQCFATGAKEVTVFDHTCDDWQKCYKNSGIEAAAKEAGAKVMPAHLESYYKPVDLPKGQKMKKAKIHEAILNCDVWINVPILKNHGGANLTISMKNHMGIVWDRGFFHQNDLQQCIADICTLEKKAVLNVVDAYRIMKTNGPRGRSASDVVLAKGLFISPDIVAVDTAAAKFFNQIREMPLDTVGHLAKGEALKVGTMDIDKLNVKRIKM", "soluble on expression in E. coli": "not soluble"}

----------
# method summary: soluble on expression in E. coli; label from the status in PepcDB or PDB records

{"input sequence": "MGSSHHHHHHSSGRENLYFQGHMEKDRKRILITGGAGFVGSHLTDKLMMDGHEVTVVDNFFTGRKRNVEHWIGHENFELINHDVVEPLYIEVDQIYHLASPASPPNYMYNPIKTLKTNTIGTLNMLGLAKRVGARLLLASTSEVYGDPEVHPQSEDYWGHVNPIGPRACYDEGKRVAETMCYAYMKQEGVEVRVARIFNTFGPRMHMNDGRVVSNFILQALQGEPLTVYGSGSQTRAFQYVSDLVNGLVALMNSNVSSPVNLGNPEEHTILEFAQLIKNLVGSGSEIQFLSEAQDDPQKRKPDIKKAKLMLGWEPVVPLEEGLNKAIHYFRKELEYQANNQGS", "soluble on expression in E. coli": "soluble"}
{"input sequence": "MSGWNAYIDTMTAAAPSIKRCAIVGAADGSVWARTEADNVFKASEEELKTFVALFNDVTQVPAKGADIEGVHYVVPRTEESLIFGKKENTGFFAVKTKSAVLIAVYEGPNEVAAQVRKAVESMQTYLNNAGY", "soluble on expression in E. coli": "not soluble"}
{"input sequence": "MGSDKIHHHHHHMPTLEPKIPGISLNYVVPTPEPELLTGVPVFFGLVTEEVKEAKKLTLATHFQQYFGQAKGYLADAIKGFFENGGRLCYVIALSNNTLEALQQGLETSEVLENIDLICVPDIMLGSDGEVIQMQQAILKHCEQMGDRFAILDALNDIGKLNEQRKRISSQNGALYAPWLKVEFRVDPIPACGHIAGIYASCDRTVGVHGAPANIPLAGVLDLSFSLTPTDQEQLNPKNEAGVNCIRSFQGRGMRVWGVRTLSPIPEWQYVNVRRLFLTFGRWVNRNLADTVFEPNAFPLWVRLQRELSIYCESLWRQGAIQGALPQEAFYVKCDAETNPPENREMGQVIAEIGLAPTIPGEFIQLLVVQSSSGITLT", "soluble on expression in E. coli": "not soluble"}
{"input sequence": "MAMDLRDPNVWISHLLENLPEEKLASALKDDNPDWEYIDGEIVKLGSLAHAQLDIPELQRRGLQLLASESKDFRLLAHLLRTLQHAGDPLLALHLLTLYVEHYWTVAAPQNMAHKKRFASQIIKRFETVLKAFHKTLPQRSAILCWVSWRNWRSAGSHITSRNWHRLPMIFLPCTSVRLIVRLLLRSPLRRPPVVHHKPPSRLKAA", "soluble on expression in E. coli": "not soluble"}
{"input sequence": "MSLNGEGAVPTLVGYGADTAIETSRRTSRPLAAPVVRKLAKELAVDLAALQRGSGAGGVITRADVLAAARGGVGAGPDVRPVHGVHARMAEKMTLSHKEIPTAKASVEVICAELLRLRDRFVSAAPEITPFALTLRLLVIALKHNVILNSTWVDSGEGPQVHVHRGVHLGFGAATERGLLVPVVTDAQDKNTRELASRVAELITGAREGTLTPAELRGSTFTVSNFGALGVDDGVPVINHPEAAILGLGAIKPRPVVVGGEVVARPTMTLTCVFDHRVVDGAQVAQFMCELRDLIESPETALLDLEGHHHHHH", "soluble on expression in E. coli": "soluble"}
{"input sequence": "MAHHHHHHMPGSLKVQTGRGDARKTVKKTVLSKGNITRSDEPAGVADSAASASVAKSSSTTASTLTIAVALSMCEQERAVEAVKETIPASASREVLRKDPIYRIMHALPRSDVLEVVRSRFEKPHCERAAAYFDLSYMKNPLRHLRLQLGCDGPTGIYLFFRRIAAHRHTLRVVDFSRNRLSADDAVLICNTLGLGVAGDVATAPGTTKASSAGAVADSTVSTAVGASAQPASSLELLDLSYNAKLGNDGAVHVVRAVRRLPSIRAVILKSVGIDDAGAVAMADVVRRWPAPALCANSAAPHALLRPVTASATKFYLNLNENYIGARGTDVLGKGLPHYVSLTLAKQQPDPARDRKRSRDDDGAACR", "soluble on expression in E. coli": "not soluble"}
{"input sequence": "LWLASDLHLGPATPATAEAFLGLLQAAADEASALLLPGDIFDAWIGDDVIRAAPPWLAAVLQGIRAAAGRIPVYLGRGNRDFLIGQELADALGAHLLPEPVLLETDYGRILLTHGDEYCTDDSAYQQFRAMVRNPQWQAQFLAMSIPERLAMAEQARGESQAANQAKSMEIMDVNPASVEAALREADVDVLVHGHTHRPARHVL", "soluble on expression in E. coli": "not soluble"}
{"input sequence": "KGTLYVVGTPIGNLRDITLRALEILSAVDCIAAEHIQHAQKLLAGHALHTTSTRIMPLHQHNEGSAVEKIIELLGSGKSVALISDAGTPAISDPGALLVQQVLARSLPVVPIPGA", "soluble on expression in E. coli": "not soluble"}
{"input sequence": "MANRIQEIALSDKNLGSKIKAVYKTERDIYVNGAPVRGRVFTASSEKQRDFEIFVPHLRNSQMLNGREEVKLIDPVARINVKRNNIGNSRSIDMVVYAKRLEVVGGNK", "soluble on expression in E. coli": "not soluble"}
{"input sequence": "MSLEDSEQIQILQHLISINSVNDHEADVAAYIQQLFADHGITSQVIPYADGRANIIAEIGDTTSDQVFALAGHLDTVATGDVADWKFDPFSAHIVDNQLYGRGAADMKSGLAAMVITLINLADQQTPLTGRLRFIGTVGEENGAMGSRMLTEKGVADDLTAMVIGEPTGGNLVYAHNGSLNYHVYSRGVGAHSSMPEKGINAITNLIKYVTAEATAFDDAPVSPELGPLVHSVTVFNGGEQVNSIPAKAELQGNIRPIPEFDNTAVIHRLHETVDRLNQEPGVDLALHVDYSFKPIISAKDSPLVQTTKAIADQEFGHAIDLQVIHGATDASEFTKSSHDFPVIVYGAGKWDAAHALNESVDLDEFRHVQHVYQQLVEKFLSEGHHHHHH", "soluble on expression in E. coli": "soluble"}
{"input sequence": "MASYRKRENGLWEYRISYKTIDGKYKRKEKGGFKTKKLAQAAAIEIEKKLTQNILTNDEVTLYDFVKTWSEVYKRPYVKDKTWETYSKNFKHIKNYFQELKVKDITPLYYQKKLNEFGEKYAQETLEKFHYQIKGAMKVAVREQVVTFNFAEGAKVKSQVEPKNEEEDFLEEREYKALLALTRENIQYVSYFTLYLLAVTGLRFSEAMGLTWSDIDFKNGILDINKSFDYSNTQDFADLKNESSKRKVPIDSNTIDILREYKKNHWQANIKNRVCFGVSNSACNKLIKKIVGRKVRNHSLRHTYASFLILNGVDIVTISKLLGHESPDITLKVYTHQMEALAERNFEKIKNIFLVA", "soluble on expression in E. coli": "not soluble"}
{"input sequence": "MSITEDIDDLKTAIENNEPIRKGIEETMHRASQIRIKQRYNCAEQEVTQMRAPFLGFSVFVRFQSRARAHTIKIINEDEVEQMLASSPVPYS", "soluble on expression in E. coli": "not soluble"}
